targetOrSystem: Mtb GlnA1 (Mycobacterium tuberculosis, UniProt P9WN39)
Construct: His6 (N); made in house; host or cells: E. coli BL21(DE3)
Sequence (P9WN39 whole entry): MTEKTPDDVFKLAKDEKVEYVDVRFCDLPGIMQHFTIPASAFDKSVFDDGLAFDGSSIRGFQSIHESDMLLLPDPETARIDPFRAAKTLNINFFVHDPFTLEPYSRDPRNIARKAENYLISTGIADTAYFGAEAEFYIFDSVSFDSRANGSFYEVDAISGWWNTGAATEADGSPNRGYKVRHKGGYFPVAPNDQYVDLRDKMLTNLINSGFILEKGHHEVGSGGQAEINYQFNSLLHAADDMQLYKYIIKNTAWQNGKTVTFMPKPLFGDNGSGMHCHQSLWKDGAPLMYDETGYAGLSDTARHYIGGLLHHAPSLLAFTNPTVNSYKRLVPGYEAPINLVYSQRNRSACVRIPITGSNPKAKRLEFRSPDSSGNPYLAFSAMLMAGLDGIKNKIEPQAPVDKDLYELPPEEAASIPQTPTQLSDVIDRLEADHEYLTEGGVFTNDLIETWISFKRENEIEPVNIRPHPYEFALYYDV
assayName: biochemical
Can you tell me IC50 for the items I'm about to list?
Your reply should be a number followed by the unit it is expressed in.

[
  {
    "compound": "CP(=O)(O)CCC(N)C(=O)O (racemic)",
    "targetOrSystem": "Mtb GlnA1 (Mycobacterium tuberculosis, UniProt P9WN39)",
    "IC50": "4450 nM"
  }
]

Here is the next item to consider.
Query: Provide one value: measured IC50 of COc1ccc2cc(-c3nc(C(C)(C)C)[nH]c3-c3ccnc(N)c3)ccc2c1 [11a]
Result: 530 nM
